Reference for the values: patent US4145554A

Avg. Wt. values by entry
# Tested on: S. typhimurium
# procedure.summary: Salmonella typhimurium in chickens, medicated feed
# Assay type: in vivo, chicks
# condition.set: Test C; 200 gm./ton feed; surviving chicks
quantity.name: Avg. Wt. (gm.)

>>> recorded_result("CCOCCn1cc(C(N)=O)c([N+](=O)[O-])n1")
62
>>> recorded_result("C=CCn1cc(C(N)=O)c([N+](=O)[O-])n1 [Compound 16, 1-allyl-3-nitro-4-pyrazolecarboxamide]")
64
>>> recorded_result("CC(=O)OCCn1cc(C(N)=O)c([N+](=O)[O-])n1")
67
>>> recorded_result("NC(=O)c1cn(CCO)nc1[N+](=O)[O-]")
71

* * *

# System: Streptococcus sp. 80
# procedure.summary: in vitro tube dilution test (MIC)
# Format: cell-based
# condition.set: Streptococcus sp. 80, tube dilution; read-out: MIC
quantity.name: MIC (µg/mL)

>>> recorded_result("CNc1nnc(-c2cn(C)nc2[N+](=O)[O-])s1")
50
>>> recorded_result("CS(=O)(=O)CCn1cc(C(N)=O)c([N+](=O)[O-])n1")
25
>>> recorded_result("Cn1cc(C#N)c([N+](=O)[O-])n1")
100
>>> recorded_result("N#Cc1cn(Cc2ccccc2)nc1[N+](=O)[O-]")
100
>>> recorded_result("Cn1cc(-c2nnc(N)s2)c([N+](=O)[O-])n1")
50
>>> recorded_result("CCn1cc(C#N)c([N+](=O)[O-])n1")
100
>>> recorded_result("CCS(=O)(=O)CCn1cc(C(N)=O)c([N+](=O)[O-])n1")
25
>>> recorded_result("Cn1cc(C(N)=O)c([N+](=O)[O-])n1 [Compound 3, 1-methyl-3-nitro-4-pyrazolecarboxamide]")
100
>>> recorded_result("N#Cc1cn(CCO)nc1[N+](=O)[O-]")
50
>>> recorded_result("C=Cn1cc(C(N)=O)c([N+](=O)[O-])n1 [Compound 81, 3-nitro-1-vinyl-4-pyrazolecarboxamide]")
25

* * *

# System: Staphylococcus aureus sp. 1130
# procedure.summary: in vitro tube dilution test (MIC)
# Assay type: cell-based
# condition.set: Staphylococcus aureus sp. 1130, tube dilution; read-out: MIC
quantity.name: MIC

>>> recorded_result("NC(=O)c1cn(CCCl)nc1[N+](=O)[O-] [Compound 52]")
"> 1.56 µg/mL"
>>> recorded_result("N#Cc1cn(CCBr)nc1[N+](=O)[O-] [Compound 91]")
"> 50 µg/mL"
>>> recorded_result("CCSCCn1cc(C#N)c([N+](=O)[O-])n1 [Compound 72]")
"> 50 µg/mL"
>>> recorded_result("C#CCn1cc(C#N)c([N+](=O)[O-])n1 [Compound 4]")
"> 50 µg/mL"
>>> recorded_result("CSCCn1cc(C(N)=O)c([N+](=O)[O-])n1 [Compound 97]")
"> 50 µg/mL"

* * *

MIC: recorded values
# System: Streptococcus sp. 80
# procedure.summary: in vitro tube dilution test (MIC)
# Type: cell-based
# condition.set: Streptococcus sp. 80, tube dilution; read-out: MIC
quantity.name: MIC (µg/mL)

>>> recorded_result("NC(=O)OCCn1cc(C(N)=O)c([N+](=O)[O-])n1")
6.25
>>> recorded_result("NC(=O)c1cn(Cc2ccccc2)nc1[N+](=O)[O-] [Compound 18, 1-benzyl-3-nitro-4-pyrazolecarboxamide]")
50
>>> recorded_result("CCOC(Cn1cc(C#N)c([N+](=O)[O-])n1)OCC")
50
>>> recorded_result("N#Cc1cn(CC2CO2)nc1[N+](=O)[O-] (stereo not shown)")
50
>>> recorded_result("NC(=O)c1cn(CCCl)nc1[N+](=O)[O-]")
50
>>> recorded_result("N#CCCn1cc(C#N)c([N+](=O)[O-])n1")
50
>>> recorded_result("NC(=O)c1cn(CCN2C(=O)c3ccccc3C2=O)nc1[N+](=O)[O-]")
6.25
>>> recorded_result("CCOCCn1cc(C#N)c([N+](=O)[O-])n1")
50
